MEASUREMENT_TARGET: human CDH6 with EC4 removed, on HEK293T cells (HEK293T-hCDH6-EC4 deletion) (human) (UniProt P55285)
METHOD_DESCRIPTION: FACS, HEK293T-hCDH6-EC4 deletion cells
Reported Max MFI values for a set of binders
I only need the number, in MFI, no unit after it.

Check out these entries, answers already filled in.
INSERT INTO measurements (binder, property_label, measured_result) VALUES
  ('DS-H01L02 (antibody, human IgG1, kappa, V domains shown) VH: EVQLVQSGAEVKKPGASVKVSCKASGYTFTRNFMHWVRQAPGQGLEWMGWIYPGDGETEYAQKFQGRVTITADTSTSTAYMELSSLRSEDTAVYYCARGVYGGFAGGYFDFWGQGTLVTVSS VL: DIQMTQSPSSLSASVGDRVTITCKASQNIYKNLAWYQQKPGKAPKLLIYDANTLQTGVPSRFSGSGSGSDFTLTISSLQPEDFATYFCQQYYSGWAFGQGTKVEIKR', 'Max MFI', 11800),
  ('CHI-CDH6-3 (antibody, human IgG1, kappa, V domains shown) VH: QVQLQQPGAELVKPGASVKLSCKASGYTFTSYWIHWVKQRPGQGLEWIGEINPSNGVTNCNENFKSKATLTVDKSSSTAYMQLSSLTSEDSAVYYCTIPNLLWWYFDVWGAGTTVTVSS VL: DIQMTQSPASLSVSVGETVTITCRASENIYSNLAWYQQKQGKSPQLLVYEATNLADGVPSRFSGSGSGTQYSLKINSLQSEDFGSYYCQHFWGTLWTFGGGTKLEIKR', 'Max MFI', 16800);

Now turn to the next binder.
Query: Name the reported Max MFI value associated with the binder CHI-CDH6-7 (antibody, human IgG1, kappa, V domains shown) VH: EVKLVESGGGLVKPGGSLKVSCAASGFTFSDHGMAWVRQAPGKGPEWVAFISNLAYSIYYADTVTGRFTISRENAKNTLYLEMSSLRSEDTAMYYCARVYVKWYFDVWGAGTTVTVSS VL: DIQMTQSPASLSASVGETVTITCRASENIDSYLAWYQQKQGKSPQLLVFAATLLADGVPSRFSGSGSGTQYSLKINSLQSEDVARYYCQHYYSTPLTFGAGTKLELKR
Result: 17400
